target or system: T1, human NGF (his tag) (human, UniProt P01138 122-241, limits assumed)
T1 construct: Captured on Ni-NTA sensors in the ForteBio Octet assay; also called hNGF; antigen; not shown: his tag
T1 sequence (P01138 122-241 limits assumed): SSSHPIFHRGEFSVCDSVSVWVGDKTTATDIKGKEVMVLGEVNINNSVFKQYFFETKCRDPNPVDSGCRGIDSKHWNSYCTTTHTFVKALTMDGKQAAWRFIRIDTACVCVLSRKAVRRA
assay protocol: BLI (ForteBio Octet), method of example 4
pKd: −log10 of the molar value.
value kind: pKd

{"binder": "humanized antibody AB5C6 (antibody, V domains shown, Humanized from #56 by surface remodeling) VH: QVQLKESGPGLVAPSETLSITCTVSGFSLTGYGVNWVRQPPGKGLEWLGMIWADGDTDYNSALKSRLTISKDNSKSQVFLKVNNLQTDDTARYYCARDSYYYGYNFFDVWGAGTTVTVSS VL: DIQMTQSPSSLSASVGDRVTISCRASQDISNYLNWYQQKPEGTLKLLIYYTSRLHSGVPSRFSGSGSGTDYSLTISSLQQEDIATYFCQQGNTLPRTFGGGTKLEIK", "recorded result": 10.99}
{"binder": "human mouse chimeric antibody AB5D1 (antibody, V domains shown) VH: QVQLQQSGPELARPGASVKLSCKASGYTFTDYWMQWVKQRPGQGLEWIGTIYPGDGYTRYIQKFKGRATLTADKSSSTAYMQLNSLASEDSAVYYCARRAAYYTMDYWGQGTSVTVSS VL: DIVMTQSHKFMSTSVGDRVSITCKASQDVNTAVAWYQQKPGQSPKLLIYWASTRHTGVPDRFTGSGSGTDYILTISSVQAEDLALYYCQQHYSSPWTFGGGTKLEIT", "recorded result": 10.97}

Source: patent US20210395354A1
